Let's look at some binders and their measured MFI.
target: T1, human LILRB4 (human, UniProt Q8NHJ6 22-448); assay: FACS, 293F-hLILRB4 cells
T1 construct: whole, on cells; also called hLILRB4

- binder: "7-B4-C1-C9 (antibody, V domains shown, mouse monoclonal hybridoma antibody) VH: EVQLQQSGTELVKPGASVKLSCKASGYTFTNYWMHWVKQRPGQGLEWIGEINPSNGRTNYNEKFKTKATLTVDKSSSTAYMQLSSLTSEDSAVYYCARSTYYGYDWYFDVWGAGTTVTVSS VL: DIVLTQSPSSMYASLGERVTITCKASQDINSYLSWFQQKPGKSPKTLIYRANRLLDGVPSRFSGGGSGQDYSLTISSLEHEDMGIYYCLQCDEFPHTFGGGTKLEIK"
  units symbol: "MFI"
  MFI: 3950
- binder: "2-H8-C9-F7-E2 (antibody, V domains shown, mouse monoclonal hybridoma antibody) VH: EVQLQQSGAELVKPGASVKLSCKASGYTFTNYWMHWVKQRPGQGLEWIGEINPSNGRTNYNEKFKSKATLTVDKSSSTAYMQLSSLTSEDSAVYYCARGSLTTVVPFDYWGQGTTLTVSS VL: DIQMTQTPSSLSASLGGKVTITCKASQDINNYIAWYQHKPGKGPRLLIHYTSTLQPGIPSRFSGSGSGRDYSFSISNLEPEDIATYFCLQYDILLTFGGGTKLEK"
  units symbol: "MFI"
  MFI: 1710
- binder: "44-F10-B6-D4 (antibody, V domains shown, mouse monoclonal hybridoma antibody) VH: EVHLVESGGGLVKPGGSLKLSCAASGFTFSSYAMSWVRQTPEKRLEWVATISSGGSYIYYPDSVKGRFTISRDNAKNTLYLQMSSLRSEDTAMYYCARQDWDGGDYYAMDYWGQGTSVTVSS VL: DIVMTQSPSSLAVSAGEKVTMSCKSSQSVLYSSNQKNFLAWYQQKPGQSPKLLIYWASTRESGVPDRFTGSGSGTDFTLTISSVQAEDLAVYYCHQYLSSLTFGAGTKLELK"
  units symbol: "MFI"
  MFI: 84.9

Cited source: patent US20250361295A1
